So I've got a bunch of binders here, and I need their koff values.
tested-on: T1, ZIKV (prM80E) with a C-terminal myc-myc-hexahistidine tag (Zika virus, UniProt A0A024B7W1 104-694)
T1 construct: also called ZIKV (prM80E)-mmH; ZIKV-mmH
run-description: SPR, mAb captured, 37C
One number for each entry, in s⁻¹.

binder="H4H25641P (antibody, V domains shown) VH: QVQLVESGGGVVQPGRSLRLSCAASGFTFSYYGMHWVRQAPGKGLEWVAVISYDASNNYYVDSVKGRFTISRDNSKNTLYLQMNSLRAEDTAVYYCAKDYGGRFDYWGQGTLVTVSS VL: EIVLTQSPGTLSLSPGERATLSCGASQSVSSYLAWYQQKPGQTPRLLIYGASSRATGIPDRFSGSGSGTDFTLTISRLEPEDFAVYYCQQYGSSPWTFGQGTKVEIK" readout_value=0.0188
binder="H4H25592P (antibody, V domains shown) VH: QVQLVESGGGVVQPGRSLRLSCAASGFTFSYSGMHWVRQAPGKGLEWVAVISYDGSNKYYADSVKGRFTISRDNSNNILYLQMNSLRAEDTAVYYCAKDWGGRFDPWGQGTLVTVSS VL: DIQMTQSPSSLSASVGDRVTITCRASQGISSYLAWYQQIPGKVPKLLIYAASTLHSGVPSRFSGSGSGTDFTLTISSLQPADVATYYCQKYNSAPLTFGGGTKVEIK" readout_value=0.00165

## Task // lookup koff for H4H25640P (antibody, V domains shown) VH: QVQLVESGGGVVQPGRSLRLSCAASGFTFSYYGMHWVRQAPGKGLEWVAVILYDGSNKFYSDSVKGRFTISRDNSRNTLYLQMNSLRLEDTAVYYCAKDYGGRFDYWGQGTLVTVSS VL: EIVLTQSPGTLSLSSGERATLSCRASQSVSNKYLAWYQQKPGQVPRLLIYGASNRATGIPDRFSGSGSGTDFTLTINRLEPEDFAVFYCQQYGSTPSTFGQGTKVEIK
## Result 0.00186
